SUBJECT OF TEST: T1, rhesus serum albumin (rhesus, UniProt Q28522 17-600)
T1 construct: also called RhSA
ASSAY NAME: SPR, single cycle kinetics, pH 5.5
# note: exactly 30 nM is not below, so it is Not fulfilled; use Fulfilled for Kd strictly under it

Example entries begin here.
BINDER	CLASS
M79 sdAb (VHH, also called M79 VHH) VHH: QVKLEESGGGLVQAGGSLKLSCAASGSTFSSSSVGWYRQAPGQQRELVAAITSGGSTNTADSVKGRFTMSRDNAKNTVYLQMRDLKPEDTAVYYCNVAGRNWVPISRYSPGPYWGQGTQVTVSS	Fulfilled
R11 sdAb (VHH, also called R11 VHH) VHH: QVKLEESGGGLVQAGGSLRLSCVGPGFLLRSNTMGWYRQAPGKERELVAFIRPSGLTNYNDAVQGRFTISRDNAKNTVYLQMNALKPEDTAVYYCHTRPPFQRDSWGQGTQVTVSS	Not fulfilled
R28 sdAb (VHH, also called R28 VHH) VHH: QVQLVESGGGLVQAGGSLRLSCVASGRTFIAYAMGWFRQAPGKEREFVAAITNFAGGTTYYADSVKGRFTISRDNAKTTVYLQMNSLKPEDTALYYCAADRSAQTMRQVRPVLPYWGQGTQVTVSS	Fulfilled
H18 sdAb (VHH, also called H18 VHH) VHH: QVQLVESGGGLVQAGGSLRLSCTASGSIESINRMAWYRQAPGQQREFVARISKGGSTNYPDSVKGRFTISRDNAKNTVYLQMNSLKPEDTAVYYCAAGPVWEQFWGQGTQVTVSS	Not fulfilled

Alright, here's another binder for you.
**Q:** Criterion: Kd strictly below 30 nM. Is it met by Rh34 sdAb (VHH, also called Rh34 VHH) VHH: QVKLEESGGGLVQAGGSLRLSCAASGRTISLYAVGWFRRAPGKEREFVAAISWTDSSTYYADSVKGRFTISRDNAKNTVYLGMNSLNPEDTAVYYCAADVSIRGLQKYEYDYWGQGTQVTVSS ?
**A:** Not fulfilled
